Molecular target: Ephrin type-B receptor 2 (Homo sapiens)
Sequence (whole entry): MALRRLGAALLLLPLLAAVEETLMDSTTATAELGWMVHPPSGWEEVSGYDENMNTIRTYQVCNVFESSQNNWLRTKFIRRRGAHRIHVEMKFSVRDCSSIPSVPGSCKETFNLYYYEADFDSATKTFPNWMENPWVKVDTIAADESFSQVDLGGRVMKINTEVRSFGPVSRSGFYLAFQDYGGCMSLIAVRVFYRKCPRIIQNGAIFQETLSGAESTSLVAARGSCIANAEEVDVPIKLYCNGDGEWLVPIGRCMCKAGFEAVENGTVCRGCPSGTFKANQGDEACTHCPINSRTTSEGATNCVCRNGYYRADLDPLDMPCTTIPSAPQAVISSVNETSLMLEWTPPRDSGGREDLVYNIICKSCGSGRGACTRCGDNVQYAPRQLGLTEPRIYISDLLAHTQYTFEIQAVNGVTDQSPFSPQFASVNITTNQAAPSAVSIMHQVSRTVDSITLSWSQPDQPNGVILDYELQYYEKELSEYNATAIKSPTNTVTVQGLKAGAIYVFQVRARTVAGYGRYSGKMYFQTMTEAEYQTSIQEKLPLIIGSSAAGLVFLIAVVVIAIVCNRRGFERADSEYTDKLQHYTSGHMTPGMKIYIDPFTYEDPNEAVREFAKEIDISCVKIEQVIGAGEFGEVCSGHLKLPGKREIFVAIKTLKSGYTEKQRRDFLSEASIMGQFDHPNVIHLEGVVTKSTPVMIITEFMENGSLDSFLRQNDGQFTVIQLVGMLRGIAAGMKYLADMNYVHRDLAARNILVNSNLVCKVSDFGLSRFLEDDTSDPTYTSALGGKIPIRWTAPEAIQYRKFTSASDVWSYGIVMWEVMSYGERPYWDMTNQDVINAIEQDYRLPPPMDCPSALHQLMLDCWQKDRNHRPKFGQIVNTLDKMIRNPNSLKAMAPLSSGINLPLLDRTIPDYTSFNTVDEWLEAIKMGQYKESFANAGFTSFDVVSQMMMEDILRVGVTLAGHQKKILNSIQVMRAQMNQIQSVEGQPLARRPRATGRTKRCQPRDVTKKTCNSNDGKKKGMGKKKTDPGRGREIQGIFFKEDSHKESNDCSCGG
Conditions: at 1 µM
Description: GSK_PKIS: EPHB2 mean inhibition at 1 uM [Nanosyn]
Hi there, I'd appreciate the recorded inhibition for every entry that follows.
Reply with just the number (in %).

Noted for `CCOc1ccc2c(-c3ccnc(Nc4cc(OC)cc(C(F)(F)F)c4)n3)cnn2n1` : its inhibition reads 8.72

// inhibition value for `OCCCNc1nccc(-c2c(-c3ccc(F)cc3)nn3cc(C(F)(F)F)ccc23)n1` : 28.2

Measured inhibition of `CS(=O)(=O)CCNCc1ccc(-c2ccc3ncnc(Nc4ccc(OCc5ccccc5)cc4)c3c2)o1` : 7.66

Note to self: inhibition recorded for `CS(=O)(=O)CCNCc1ccoc1-c1ccc2ncnc(Nc3ccc(OCc4ccccc4)cc3)c2c1` was 7.96

Looking up `Cn1c(-c2nonc2N)nc2cnccc21` , I see its inhibition listed as 3.92

Lab note: `CC(C)c1ccc(-c2cc(-c3c[nH]nc3-c3ccccn3)ccn2)cc1` gave inhibition of 5.4

Item: `CNC(=O)c1ncccc1Nc1nc(Nc2cc3c(cc2OC)CCCN3C(=O)CN(C)C)nc2[nH]ccc12` | inhibition: 9.33

// `O=C1Nc2ccccc2/C1=C1\CCc2cc(O)ccc21` : inhibition value = 9.85

molecule `CS(=O)(=O)Nc1ccc(-c2ccc3c(NC(=O)C4CC4)n[nH]c3c2)cc1` , inhibition observed: 11.6

// recorded inhibition for `COc1ccc(Nc2ncc(-c3ccccc3)o2)cc1OC` : -1.55

Memo: `CC1(C)CC(n2cnc(-c3ccc(F)cc3)c2-c2ccnc(N)n2)CC(C)(C)N1` , reported inhibition: 4.85

Entry `COc1cc(N2CCN(C(C)C)CC2)ccc1Nc1nc(Nc2cccc(F)c2C(=O)O)c2cc[nH]c2n1` ; inhibition = 12.6
